# System: MS2 coat protein
# assay.details: apparent KD of MS2 coat protein, switch OFF state (with FMN for OFF switches, without FMN for ON switches); designed switch direction (-1 OFF switch, 1 ON switch): -1; higher = weaker reporter binding
# reported.conditions: FMN input: 0 or 200 uM; Eterna round: R93 (includes R88 designs)
Binary classification by apparent KD of MS2 coat protein, with 30 nM as an inclusive lower bound for satisfied; all other cases are not satisfied.

hey, is apparent KD of MS2 coat protein for this one >= 30 nM? AAAAAACAUGAGGAUCACCCAUGUGAGGAUAUCCAGAAGGGAAUAAAAUAACACGAAAGGAGAAGGCACAAAAA [Ex 1 May 36] satisfied

hey, is apparent KD of MS2 coat protein for this one >= 30 nM? AAGAGUAGAGGAUAUACAUGAGGAUCACCCAUGUAAUCCGGAUAAGGAAGCAUGUCGUGUAGAAGGCUGCAUGA [MOD 3 of Nando (MS2 Riboswitches- Exclusion 3)] not satisfied

hey, is apparent KD of MS2 coat protein for this one >= 30 nM? GGUUGAAAAGGAUAUACAUGAGGAUCACCCAUGUGAGAGAAAAAAGUGAGAAAGAAAAGUAGAAGGUUUUGACG [salish99-ex3-61] satisfied

hey, is apparent KD of MS2 coat protein for this one >= 30 nM? AAAAACUGAGGAUAUACAUGAGGAUCACCCAUGUGAAAGAACGAAAAACGAAAAGCAAGUAGAAGGCAGAAAAA [Ruby 77] not satisfied

hey, is apparent KD of MS2 coat protein for this one >= 30 nM? UCCGGACAUGAGGAUCACCCAUGUGAGGAUAUAUAAAGUGGGACUGGAAACAGUCCCAAUAGAAGGCACAUGAA [Celaar] not satisfied

hey, is apparent KD of MS2 coat protein for this one >= 30 nM? AAAAAGUCAGGAUAUGUGGAAAAAAUAAAAAAAAUAAAAACACAGAAGGGACAUGAGGAUCACCCAUGUUAAAA [Ex 4 May 18] satisfied

hey, is apparent KD of MS2 coat protein for this one >= 30 nM? AACAUGUCAGGAUAUGUAGCAAAAAGUGAUCCAAAAAAGCUACAGAAGGGACAUGAGGAUCACCCAUGUAAAAA [Ex4: 933] satisfied

hey, is apparent KD of MS2 coat protein for this one >= 30 nM? AUAAUGUCAGGAUAUCAGUAGUAAAAAAAAAAAAUUACUACUGAGAAGGGACAUGAGGAUCACCCAUGUCAAAA [EX4 307: Super Stable 7] not satisfied

hey, is apparent KD of MS2 coat protein for this one >= 30 nM? UAAAAACAUGAGGAUCACCCAUGUCAGGAUAUGUGCUCAGUGAAAAACUGAGUAACAAGCAGAAGGGACAAUAA [JR_Exc001_Sub202] satisfied

hey, is apparent KD of MS2 coat protein for this one >= 30 nM? AGUGAGUGAGGAUAUUACUGAAGAAUAAAAGAAAUAACGAGUAAGAAGGCACAUGAGGAUCACCCAUGUACACA [May 62] not satisfied

hey, is apparent KD of MS2 coat protein for this one >= 30 nM? AAGAAUCGAGGAUAUACAUGAGGAUCACCCAUGUAAAAGAAAGAGGGAAAAGAGAAAAGUAGAAGGCGAAAGAA [Ptolemy Memphitis] not satisfied

hey, is apparent KD of MS2 coat protein for this one >= 30 nM? CUCAAGUCAGGAUAUUUAAGAAAAGAAGAGAAAGAAAAGAAAAAGAAGGGACAUGAGGAUCACCCAUGUAAGAA [EteRNA is fun!] satisfied
